// values below are reported inhibition at 1 µM
assayed system: ABHD6 (Mus musculus, UniProt Q8R2Y0)
Construct: Proteomes (mouse brain membrane fraction or cell lysates); from tissue; host or cells: mouse brain membrane fraction (or cell lysates, not specified)
Sequence (Q8R2Y0 whole entry): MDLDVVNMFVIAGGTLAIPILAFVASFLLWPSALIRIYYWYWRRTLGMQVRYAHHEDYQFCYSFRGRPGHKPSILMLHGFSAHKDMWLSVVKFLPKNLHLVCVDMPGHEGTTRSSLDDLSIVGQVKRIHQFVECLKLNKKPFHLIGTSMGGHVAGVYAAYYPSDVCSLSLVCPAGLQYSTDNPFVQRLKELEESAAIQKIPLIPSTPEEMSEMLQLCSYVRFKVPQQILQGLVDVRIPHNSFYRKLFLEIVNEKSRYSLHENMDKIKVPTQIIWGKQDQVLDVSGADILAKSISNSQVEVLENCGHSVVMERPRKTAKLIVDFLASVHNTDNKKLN
assay: In vitro competitive activity-based protein profiling (gel-based, FP-Rh or HT-01 probe)
Format: biochemical
protocol conditions: 1 μM inhibitor; gel-based competitive ABPP; read-out: % Inhibition at 1 μM, C = ABHD6

Below are worked cases with known answers.
molecule	inhibition at 1 µM
N#Cc1cnn(C(=O)N2CCN(Cc3ccc(C(=O)N4CCC4)cc3Cl)CC2)c1 [Example 283]	> 75%
CCN(Cc1ccc(Cl)cc1)C(=O)n1cc(C(F)(F)F)cn1 [Example 253]	< 25%
CCN(Cc1ccc(N2CCOCC2)cc1)C(=O)n1cc(C#N)cn1 [Example 263]	25 to 75%
O=C(N1CCN(Cc2cccc(N3CCCC3)c2)CC1)n1cc(C(F)(F)F)cn1 [Example 273]	> 75%
NC(=O)c1cnn(C(=O)N2CCN(Cc3cccc(Oc4ccccc4)c3)CC2)c1 [Example 286]	> 75%

Entry N#Cc1cnn(C(=O)N2CCN(Cc3ccc(C(=O)N4CCCCC4)cc3F)CC2)c1 [Example 284] has what inhibition at 1 µM?
> 75%

Entry COc1cc(-c2ccccc2)ccc1CN1CCN(C(=O)n2cc(C(=O)N3CCCC3)cn2)CC1 [Example 290] has what inhibition at 1 µM?
> 75%

Entry CCN(Cc1cccc(C)c1)C(=O)n1cc(C)cn1 [Example 248] has what inhibition at 1 µM?
< 25%

Entry CCN(Cc1cccc(OC)c1)C(=O)n1cc(C#N)cn1 [Example 249] has what inhibition at 1 µM?
< 25%

Entry CCN(Cc1ccc(C)cc1)C(=O)n1cc(C(F)(F)F)cn1 [Example 256] has what inhibition at 1 µM?
< 25%

Entry N#Cc1cnn(C(=O)N2CCCN(Cc3cccc(OCc4ccccc4)c3)CC2)c1 [Example 300] has what inhibition at 1 µM?
> 75%

Entry O=C(N1CCN(Cc2cccc(F)c2)CC1)n1cc(C(F)(F)F)cn1 [Example 269] has what inhibition at 1 µM?
> 75%

Entry Cc1cnn(C(=O)N2CCN(Cc3cccc(Oc4ccccc4)c3)CC2)c1 [Example 294] has what inhibition at 1 µM?
> 75%

Entry CCN(Cc1ccc(Cl)cc1)C(=O)n1cc(C)cn1 [Example 254] has what inhibition at 1 µM?
< 25%
